- Test system: B16 melanoma cells
- measurementProtocol: Skin whitening test (melanin suppression)
- Format: cell-based, mouse
- conditionInfo: 20 μg/ml, 3 days
In this section, each of the molecules is paired with its reported Melanin suppression rate (compound).
Give just the numeric value; % need not be written.

{"molecule": "OC[C@H]1O[C@@H](OCCc2ccc(O)c(O)c2)[C@H](O)[C@@H](O)[C@@H]1O [DPE-1-O-β-D-Glucopyranocide]", "assayTarget": "B16 melanoma cells", "Melanin suppression rate (compound) [%]": 24.6}
{"molecule": "OCCc1ccc(O)c(O)c1 [DPE, 2-(3,4-dihydroxyphenyl)ethanol]", "assayTarget": "B16 melanoma cells", "Melanin suppression rate (compound) [%]": 52.3}
{"molecule": "OCCc1ccc(O)c(O[C@@H]2O[C@H](CO)[C@@H](O)[C@H](O)[C@H]2O)c1 [DPE-3′-O-β-D-Glucopyranocide]", "assayTarget": "B16 melanoma cells", "Melanin suppression rate (compound) [%]": 32.3}

Field: next molecule
Data request: Given OCCc1ccc(O[C@@H]2O[C@H](CO)[C@@H](O)[C@H](O)[C@H]2O)c(O)c1 [DPE-4′-O-β-D-Glucopyranocide] , state its recorded Melanin suppression rate (compound).
Data returned: 35.4
